- Tested on: Primary T cells
- TEST METHOD NOTES: Antiproliferative activity (AP), mitotic index by flow cytometry
- Assay type: cell-based
- EXPERIMENTAL SETUP: T-cell; primary T cells, mitotic index; read-out: AP50 (Inhibitory concentration 50% for antiproliferative capacity)
RESULT TYPE: pIC50
A value of pIC50 is the negative decimal logarithm of a concentration given in moles per litre.

Observe how each entry below is paired with its result.
>>> measured("COc1ccc(Nc2cc(-c3ccccc3OC)ncn2)cc1NS(=O)(=O)NC1CCCCC1")
6.22
>>> measured("COc1ccc(Nc2cc(-c3ccccc3OC)ncn2)cc1CNS(C)(=O)=O")
5.82
>>> measured("COc1ccc(Nc2cc(-c3ccccc3OC)ncn2)cc1CN")
6.30

Prompt: Provide measured pIC50 value, entry: CN1CC[C@H](c2c(O)cc(O)c3c(=O)cc(-c4ccccc4Cl)oc23)[C@H](O)C1 [Flavopiridol, reference compound]
Response: 7.52

Prompt: Provide measured pIC50 value, entry: COc1ccccc1-c1cc(Nc2ccc(Cl)c(C(N)=O)c2)ncn1
Response: 5.30

Prompt: Provide measured pIC50 value, entry: COc1ccccc1-c1cc(Nc2ccc(Cl)c(C(=O)NN)c2)ncn1
Response: 5.40

Prompt: Provide measured pIC50 value, entry: COc1ccc(Nc2cc(-c3ccccc3OC)ncn2)cc1O
Response: 7.15

Prompt: Provide measured pIC50 value, entry: CCOc1ccc(Nc2cc(-c3ccccc3OC)ncn2)cc1C(N)=O
Response: 7.80

Prompt: Provide measured pIC50 value, entry: COc1ccccc1-c1cc(Nc2ccc(N3CCN(C)CC3)c(CO)c2)ncn1
Response: 6.46

Prompt: Provide measured pIC50 value, entry: CNS(=O)(=O)Nc1cc(Nc2cc(-c3ccccc3OC)ncn2)ccc1OC
Response: 6.30

Prompt: Provide measured pIC50 value, entry: COc1ccc(Nc2cc(-c3ccccc3OC)ncn2)cc1OC(=O)C(C)(C)C
Response: 7.00

Prompt: Provide measured pIC50 value, entry: CCOc1ccc(Nc2cc(-c3ccccc3OC)ncn2)cc1Cn1cnc2ccccc21
Response: 6.52

Prompt: Provide measured pIC50 value, entry: COc1ccccc1-c1cc(Nc2ccc(N3CCN(C)CC3)c(Cn3cnc4ccccc43)c2)ncn1
Response: 6.40

----------
- Tested on: Primary T cells
- TEST METHOD NOTES: Cytotoxicity, percentage of viable cells by flow cytometry
- Assay type: cell-based
- EXPERIMENTAL SETUP: viability
RESULT TYPE: TD50 (Toxic dose 50%)

Observe how each entry below is paired with its result.
>>> measured("COc1ccccc1-c1cc(Nc2ccc(Cl)c(CN3C(=O)c4ccccc4C3=O)c2)ncn1")
">0.5 µM"
>>> measured("COc1ccccc1-c1cc(Nc2ccc(N(C)C)cc2)ncn1")
">10 µM"
>>> measured("COc1ccc(Nc2cc(-c3ccccc3OC)ncn2)cc1OCCN1CCOCC1")
">1.5 µM"
>>> measured("COc1ccc(Nc2cc(-c3ccccc3OC)ncn2)cc1NC(=O)OCC(Cl)(Cl)Cl")
">0.5 µM"
>>> measured("COc1ccc(Nc2cc(-c3ccccc3OC)ncn2)cc1CN1C(=O)c2ccccc2C1=O")
">5 µM"

Prompt: Provide measured TD50 (Toxic dose 50%) value, entry: COc1ccc(Nc2cc(-c3ccccc3OC)ncn2)cc1OCc1ccccc1
Response: >5 µM

Prompt: Provide measured TD50 (Toxic dose 50%) value, entry: CC[C@H](CO)Nc1nc(NCc2ccccc2)c2ncn(C(C)C)c2n1 [Roscovitine, reference compound]
Response: 8 µM

Prompt: Provide measured TD50 (Toxic dose 50%) value, entry: CNCc1cc(Nc2cc(-c3ccccc3OC)ncn2)ccc1OC
Response: 2 µM

Prompt: Provide measured TD50 (Toxic dose 50%) value, entry: COc1ccc(Nc2cc(-c3ccccc3OC)ncn2)cc1C(=O)N(C)N
Response: >10 µM

Prompt: Provide measured TD50 (Toxic dose 50%) value, entry: COc1ccc(Nc2cc(-c3ccc(F)cc3OC)ncn2)cc1NC(C)=O
Response: >2 µM

Prompt: Provide measured TD50 (Toxic dose 50%) value, entry: COc1ccc(Nc2cc(-c3ccc(F)cc3OC)ncn2)cc1OC(C)=O
Response: >2 µM

Prompt: Provide measured TD50 (Toxic dose 50%) value, entry: COC(=O)Nc1cc(Nc2cc(-c3ccc(F)cc3OC)ncn2)ccc1OC
Response: >2 µM

----------
We begin with a simple list: items and their reported pIC50.
- Test system: Primary T cells
- TEST METHOD NOTES: Antiproliferative activity (AP), mitotic index by flow cytometry
- Format: cell-based
- EXPERIMENTAL SETUP: T-cell; primary T cells, mitotic index; read-out: AP50 (Inhibitory concentration 50% for antiproliferative capacity)
pIC50: −log10 of the molar value.

Observe how each entry below is paired with its result.
>>> measured("COc1ccccc1-c1cc(Nc2ccc(Cl)c(C(=O)N3CCCC3)c2)ncn1")
"< 6.30"
>>> measured("COc1ccccc1-c1cc(Nc2ccc(OC)c([N+](=O)[O-])c2)ncn1")
"< 5.82"
>>> measured("COc1ccc(Nc2cc(-c3ccccc3OC)ncn2)cc1C=O")
"< 6.30"
>>> measured("COc1ccccc1-c1cc(Nc2ccc(N3CCN(C)CC3)c(S(N)(=O)=O)c2)ncn1")
"< 6.30"

Prompt: Provide measured pIC50 value, entry: COc1ccccc1-c1cc(Nc2ccc(F)c(Cn3cnc4ccccc43)c2)ncn1
Response: < 6.70

Prompt: Provide measured pIC50 value, entry: COC(=O)c1cc(Nc2cc(-c3ccccc3OC)ncn2)ccc1OC
Response: < 6.30

Prompt: Provide measured pIC50 value, entry: COc1ccc(Nc2cc(-c3ccccc3OC)ncn2)cc1F
Response: < 6.30

Prompt: Provide measured pIC50 value, entry: COc1ccc(Nc2cc(-c3cc(F)ccc3OC)ncn2)cc1N
Response: > 7.10

Prompt: Provide measured pIC50 value, entry: COc1ccccc1-c1cc(Nc2ccc(Cl)c(CO)c2)ncn1
Response: < 6.30

----------
We begin with a simple list: items and their reported pIC50.
- Test system: Primary T cells
- TEST METHOD NOTES: Antiproliferative activity (AP), mitotic index by flow cytometry
- Type: cell-based
- EXPERIMENTAL SETUP: T-cell; primary T cells, mitotic index; read-out: AP50 (Inhibitory concentration 50% for antiproliferative capacity)
pIC50: −log10 of the molar value.

Observe how each entry below is paired with its result.
>>> measured("CCOC(=O)c1cc(Nc2cc(-c3ccccc3OC)ncn2)ccc1N1CCOCC1")
"< 6.30"
>>> measured("COc1ccc(Nc2cc(-c3ccccc3OC(C)C)ncn2)cc1N")
"> 7.10"
>>> measured("COc1ccccc1-c1cc(Nc2ccc(N3CCOCC3)c(CO)c2)ncn1")
"< 6.30"
>>> measured("CCOC(=O)c1cc(Nc2cc(-c3ccccc3OC)ncn2)ccc1Cl")
"< 6.30"
>>> measured("COC(=O)c1cc(Nc2cc(-c3ccccc3OC)ncn2)ccc1O")
"< 6.30"

Prompt: Provide measured pIC50 value, entry: COc1ccc(Nc2cc(-c3ccc(F)cc3OC)ncn2)cc1N
Response: > 7.10

Prompt: Provide measured pIC50 value, entry: COc1ccccc1-c1cc(Nc2ccc(O)c([N+](=O)[O-])c2)ncn1
Response: < 5.82

Prompt: Provide measured pIC50 value, entry: COc1ccc(Nc2cc(-c3ccccc3OC)ncn2)cc1NS(C)(=O)=O
Response: < 5.82

Prompt: Provide measured pIC50 value, entry: CCOc1ccc(Nc2cc(-c3ccc(F)cc3OC)ncn2)cc1C(N)=O
Response: > 8.52
